Ref: patent US20220119513A1

- experimental-system: T1, TGFβ1 (R&D Systems)
- T1 construct: also called TGFB1
- T1 sequence (P01137 279-390): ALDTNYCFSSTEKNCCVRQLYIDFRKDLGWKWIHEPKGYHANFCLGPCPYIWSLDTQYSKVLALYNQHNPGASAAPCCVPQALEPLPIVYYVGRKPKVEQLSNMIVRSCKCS
- assay-notes: single point SPR
pKd: −log10 of the molar value.
result-type: pKd

| binder | result-type | value |
| --- | --- | --- |
| Can-SL501-VH3 P109T / Can-SL501-VL2 (antibody, V domains shown) VH: EVQLVESGGDLVKPGGSLRLSCVASGFTFSSYGMHWVRQAPGKELEWVAVISYDGSIKYYADAVKGRFTISRDNAKNTLYLQMNSLRAEDTAVYYCARTGEYSGYDTDTQYSWGQGTTVTVSS VL: EIVMTQSPGSLAGSAGESVSINCRASQGIGDDLGWYQQKPGERPKLLIYGTSTLQSGVPARFSSSGSGTDFTLTINNLQAEDVGDYYCLQDSNYPLTFGAGTK | pKd | 9.12 |
| Can-SL501-VH3 Q110S / Can-SL501-VL2 (antibody, V domains shown) VH: EVQLVESGGDLVKPGGSLRLSCVASGFTFSSYGMHWVRQAPGKELEWVAVISYDGSIKYYADAVKGRFTISRDNAKNTLYLQMNSLRAEDTAVYYCARTGEYSGYDTDPSYSWGQGTTVTVSS VL: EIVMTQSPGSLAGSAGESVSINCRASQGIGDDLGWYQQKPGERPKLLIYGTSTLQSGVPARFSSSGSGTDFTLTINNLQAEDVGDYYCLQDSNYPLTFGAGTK | pKd | 8.19 |
| Can-SL501-VH3 Y111W / Can-SL501-VL2 (antibody, V domains shown) VH: EVQLVESGGDLVKPGGSLRLSCVASGFTFSSYGMHWVRQAPGKELEWVAVISYDGSIKYYADAVKGRFTISRDNAKNTLYLQMNSLRAEDTAVYYCARTGEYSGYDTDPQWSWGQGTTVTVSS VL: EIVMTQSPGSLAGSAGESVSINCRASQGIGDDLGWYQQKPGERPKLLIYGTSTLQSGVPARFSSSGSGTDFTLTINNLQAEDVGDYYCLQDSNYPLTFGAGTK | pKd | 7.86 |
